- Assayed target: T1, APBA1_1, Q02410
- T1 sequence (Q02410 651-752, limits assumed, looked up): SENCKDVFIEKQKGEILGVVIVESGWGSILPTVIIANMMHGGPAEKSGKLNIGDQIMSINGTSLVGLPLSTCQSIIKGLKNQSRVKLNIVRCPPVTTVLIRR
- Test method notes: holdup assay
- Set-up: key: below the threshold = too weak to quantify, mostly under pKd 3.1 to 4
- Measurement conditions: plain residues with an end cap or a label only (N-terminal biotin on a linker: ado-ado)
Parameter: pKd

1) SRSVVESDEL [MYPN, Q86TC9]
below the threshold
2) IDESKKEWLI [CNTNAP2, Q9UHC6]
below the threshold
3) PYPTADHMLA [JUP, P14923]
below the threshold
4) NIAESLESLV [PTPRZ1, P23471]
below the threshold
5) SVTSERETNI [SLC16A7, O60669]
below the threshold
6) QSGLYESEEL [MYOT, Q9UBF9]
below the threshold
7) AQRARSPSDV [GPR12, P47775]
below the threshold
8) TGLWKHETTV [ADGRA3, Q8IWK6]
below the threshold

These measurements were taken from paper PMC9482650.
